Listed here are compounds together with their documented IC50.
Biological target: human MRGPRD (Homo sapiens)
Sequence (Q8TDS7 whole entry): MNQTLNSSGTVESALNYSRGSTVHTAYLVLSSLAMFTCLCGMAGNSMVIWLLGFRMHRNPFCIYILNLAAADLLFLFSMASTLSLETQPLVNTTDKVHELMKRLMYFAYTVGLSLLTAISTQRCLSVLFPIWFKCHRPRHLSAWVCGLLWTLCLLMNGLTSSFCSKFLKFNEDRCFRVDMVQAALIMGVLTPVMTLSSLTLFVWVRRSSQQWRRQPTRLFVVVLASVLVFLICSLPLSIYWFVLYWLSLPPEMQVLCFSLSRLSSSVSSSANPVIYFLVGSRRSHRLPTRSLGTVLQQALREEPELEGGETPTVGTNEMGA
Assay: MRGPRD antagonist activity, IP-One HTRF assay in CHO cells stably expressing human MRGPRD (versus 100 μM β-Alanine agonist)
Description: Chinese Hamster Ovary (CHO) cells stably expressing human MRGPRD (Eurofins, San Diego CA) were plated in a 384-well plate at 20,000 cells per well in 12 μL of Optimem (Fisher Scientific 11-058-021). Plates were kept in the incubator at 37° C. overnight. […] Assay plates were read on either a Molecular Devices SpectraMax iD5 plate reader or a BMG ClarioStar plate reader. The HTRF ratio was calculated form the raw data and graphed using GraphPad Prism to calculate IC50 values. […]

{"columns": ["compound", "targetSystem", "IC50"],
 "data": [
  ["Cc1ccc(-n2nnc(C(=O)Nc3ccncc3)c2C2CCC2)cc1 [Compound 3-5]", "human MRGPRD (Homo sapiens)", "0.5 to 1 µM"],
  ["O=C(Nc1ccncc1)c1nnn(-c2ccc(-c3n[nH]c4c3CCCC4)cc2)c1C1CC1 [Compound 7-94]", "human MRGPRD (Homo sapiens)", "0.1 to 0.5 µM"],
  ["O=C(Nc1ccncc1)c1nnn(-c2cccc(-c3cn[nH]c3)c2)c1C1CC1 [Compound 7-310]", "human MRGPRD (Homo sapiens)", "1 to 3 µM"],
  ["CCc1ccccc1-c1ccc(-n2nnc(C(=O)Nc3ccncc3)c2C2CC2)cc1 [Compound 7-208]", "human MRGPRD (Homo sapiens)", "1 to 3 µM"],
  ["CCn1cc(CNC(=O)c2nnn(-c3ccc(-c4ccc(C#N)cc4)cc3)c2C(C)C)cn1 [Compound 17-17]", "human MRGPRD (Homo sapiens)", "0.1 to 0.5 µM"],
  ["CC(C)n1nccc1-c1ccc(-n2nnc(C(=O)Nc3ccncc3)c2C2CC2)cc1 [Compound 7-106]", "human MRGPRD (Homo sapiens)", "0.1 to 0.5 µM"],
  ["CC(=O)c1cccc(-c2cc(-n3nnc(C(=O)Nc4ccncc4)c3C3CC3)ccc2C)c1 [Compound 7-259]", "human MRGPRD (Homo sapiens)", "0.5 to 1 µM"],
  ["CCn1cc(CNC(=O)c2nnn(-c3ccc(-c4ccc(F)cc4)cc3)c2C2CC2)cn1 [Compound 17-7]", "human MRGPRD (Homo sapiens)", "1 to 3 µM"],
  ["COc1cc(C#N)ccc1-c1ccc(-n2nnc(C(=O)NC3(c4cncc(Cl)c4)CC3)c2C2CC2)cc1 [Compound 18-15]", "human MRGPRD (Homo sapiens)", "0.5 to 1 µM"],
  ["Cc1ccc(-n2nnc(C(=O)Nc3ccnc(F)c3)c2C2CC2)cc1 [Compound 1-7]", "human MRGPRD (Homo sapiens)", "0.5 to 1 µM"],
  ["N#CCc1ccc(-n2nnc(C(=O)Nc3ccncc3)c2C2CC2)cc1 [Compound 7-4]", "human MRGPRD (Homo sapiens)", "> 3 µM"],
  ["C#Cc1ccc(-c2ccc(-n3nnc(C(=O)Nc4ccncc4)c3C3CC3)cc2)cc1 [Compound 7-150]", "human MRGPRD (Homo sapiens)", "0.5 to 1 µM"],
  ["O=C(Nc1ccncc1)c1nnn(-c2ccc(-c3ccccc3-c3ccccc3)cc2)c1C1CC1 [Compound 7-327]", "human MRGPRD (Homo sapiens)", "1 to 3 µM"],
  ["O=C(NCc1cscn1)c1nnn(-c2ccc(-c3ccccc3)cc2)c1C1CC1 [Compound 14-11]", "human MRGPRD (Homo sapiens)", "> 3 µM"],
  ["Cc1cc(CNC(=O)c2nnn(-c3ccc(-c4ccccc4)cc3)c2C2CC2)nn1C [Compound 14-55]", "human MRGPRD (Homo sapiens)", "1 to 3 µM"],
  ["Cc1c(-c2cccc(-n3nnc(C(=O)Nc4ccncc4)c3C3CC3)c2)cnn1-c1ccccc1 [Compound 7-240]", "human MRGPRD (Homo sapiens)", "0.1 to 0.5 µM"],
  ["N#CCc1ccc(-c2cccc(-n3nnc(C(=O)NC4(c5cccnc5)CC4)c3C3CC3)c2)cc1 [Compound 18-21]", "human MRGPRD (Homo sapiens)", "1 to 3 µM"],
  ["COCn1cc(-c2ccc(-n3nnc(C(=O)Nc4ccncc4)c3C3CC3)cc2)cn1 [Compound 7-158]", "human MRGPRD (Homo sapiens)", "0.5 to 1 µM"],
  ["Cc1ccc(CNC(=O)c2nnn(-c3cccc(-c4ccn(C5CCC5)n4)c3)c2C2CC2)cn1 [Compound 7-278]", "human MRGPRD (Homo sapiens)", "0.5 to 1 µM"],
  ["CC(C)c1c(C(=O)NC2(c3cccnc3)CC2)nnn1-c1ccc(-c2ccc(C#N)cc2)cc1 [Compound 17-32]", "human MRGPRD (Homo sapiens)", "1 to 3 µM"],
  ["O=C(NC1(c2cncc(Cl)c2)CC1)c1nnn(-c2ccc(-c3cnn(Cc4ccccc4)c3)cc2)c1C1CC1 [Compound 18-19]", "human MRGPRD (Homo sapiens)", "1 to 3 µM"],
  ["N#CCc1ccc(-c2cccc(-n3nnc(C(=O)Nc4ccncc4)c3C3CC3)c2)cc1 [Compound 7-273]", "human MRGPRD (Homo sapiens)", "0.5 to 1 µM"],
  ["O=C(Nc1ccncc1)c1nnn(-c2cc3ccccc3o2)c1C1CC1 [Compound 4-1]", "human MRGPRD (Homo sapiens)", "> 3 µM"],
  ["O=C(NC1(c2cccnc2)CC1)c1nnn(-c2cccc(-c3cnn(C4CCC4)c3)c2)c1C1CC1 [Compound 7-10]", "human MRGPRD (Homo sapiens)", "> 3 µM"],
  ["CN(C)c1cccc(-c2ccc(-n3nnc(C(=O)Nc4ccncc4)c3C3CC3)cc2)c1 [Compound 7-36]", "human MRGPRD (Homo sapiens)", "0.1 to 0.5 µM"],
  ["CC(C)Cn1nc(C(F)(F)F)cc1-c1ccc(-n2nnc(C(=O)Nc3ccncc3)c2C2CC2)cc1 [Compound 7-212]", "human MRGPRD (Homo sapiens)", "1 to 3 µM"],
  ["N#Cc1ccc(-c2ccc(-n3nnc(C(=O)NC4(c5cncc(Cl)c5)CC4)c3C3CC3)cc2)cc1 [Compound 18-1]", "human MRGPRD (Homo sapiens)", "0.1 to 0.5 µM"],
  ["Cc1ncccc1CNC(=O)c1nnn(-c2ccc(-c3cccc(CC#N)c3)cc2)c1C1CC1 [Compound 16-3]", "human MRGPRD (Homo sapiens)", "0.1 to 0.5 µM"],
  ["CC(C)(C)c1c(C(=O)Nc2ccncc2)nnn1-c1ccc(-c2ccccc2)cc1 [Compound 4-12]", "human MRGPRD (Homo sapiens)", "1 to 3 µM"],
  ["O=C(Nc1cccc2nccn12)c1nnn(-c2ccc(-c3ccccc3)cc2)c1C1CC1 [Compound 14-65]", "human MRGPRD (Homo sapiens)", "1 to 3 µM"],
  ["Cc1cc(NC(=O)c2nnn(-c3ccc(-c4ccc(C#N)c(F)c4)cc3)c2C2CC2)cc(C)n1 [Compound 7-87]", "human MRGPRD (Homo sapiens)", "0.1 to 0.5 µM"],
  ["Cc1cc(NC(=O)c2nnn(-c3ccc(-c4ccc(CC#N)cc4)cc3)c2C2CC2)ccn1 [Compound 15-1]", "human MRGPRD (Homo sapiens)", "< 0.1 µM"]
]}

----------
target: human MRGPRD (Homo sapiens); experiment: MRGPRD antagonist activity, IP-One HTRF assay in CHO cells stably expressing human MRGPRD (versus 100 μM β-Alanine agonist)
pIC50: −log10 of the molar value.

{"columns": ["molecule", "pIC50"],
 "data": [
  ["Cc1ncccc1CNC(=O)c1nnn(-c2ccc(-c3c(C)nn(C)c3C)cc2)c1C1CC1", "6.30 to 7.00"],
  ["CCc1cccc(-n2nnc(C(=O)Nc3ccncc3)c2C2CC2)c1", "6.00 to 6.30"],
  ["CN(C)Cc1ccc(-c2ccc(-n3nnc(C(=O)Nc4ccncc4)c3C3CC3)cc2)cc1", "5.52 to 6.00"],
  ["COc1ccc(C2(NC(=O)c3nnn(-c4ccc(-c5ccccc5)cc4)c3C(C)C)CC2)cn1", "5.52 to 6.00"],
  ["Cc1cnn(C2CCCCO2)c1-c1ccc(-n2nnc(C(=O)Nc3ccncc3)c2C2CC2)cc1 (stereo not shown)", "5.52 to 6.00"],
  ["O=C(Nc1ccncc1)c1nnn(-c2cccc(-c3ccc(O)cc3)c2)c1C1CC1", "6.00 to 6.30"],
  ["CCn1cc(CNC(=O)c2nnn(-c3ccc(-c4ccc(C#N)cc4)cc3F)c2C(C)C)cn1", "6.30 to 7.00"],
  ["Cc1cc(NC(=O)c2nnn(-c3ccc(-c4c(C)nn5ccccc45)cc3)c2C(C)C)ccn1", "6.30 to 7.00"],
  ["O=C(Nc1cccc(-n2cncn2)c1)c1nnn(-c2ccc(-c3ccccc3)cc2)c1C1CC1", "6.00 to 6.30"],
  ["Cc1ccc(CNC(=O)c2nnn(-c3ccc(-c4c(C)nn(C)c4C)cc3)c2C2CC2)cn1", "6.30 to 7.00"],
  ["Cc1nn(C)c(C)c1-c1ccc(-n2nnc(C(=O)NC(C)c3cnn(C)c3)c2C2CC2)cc1 (stereo not shown)", "6.00 to 6.30"],
  ["CC(NC(=O)c1nnn(-c2ccc(-c3ccccc3)cc2)c1C1CC1)c1cnn(C(C)(C)C)c1 (stereo not shown)", "5.52 to 6.00"],
  ["O=C(NCCc1cccs1)c1nnn(-c2ccc(-c3ccccc3)cc2)c1C1CC1", "5.52 to 6.00"],
  ["CCn1cc(CNC(=O)c2nnn(-c3ccc(-c4ccc(C#N)c(F)c4)cc3)c2C2CC2)cn1", "6.30 to 7.00"],
  ["O=C(Nc1ccncc1)c1nnn(-c2cccc(-c3ccccc3O)c2)c1C1CC1", "6.00 to 6.30"],
  ["Cc1nn2cccnc2c1-c1ccc(-n2nnc(C(=O)NC3(c4cncc(Cl)c4)CC3)c2C2CC2)cc1", "< 5.52"],
  ["COc1ccc(-n2nnc(C(=O)Nc3ccncc3)c2C2CC2)cc1", "6.00 to 6.30"],
  ["O=C(Nc1ccncc1)c1nnn(-c2ccc(-c3ccccc3)cc2Cl)c1C1CC1", "6.00 to 6.30"],
  ["Cc1nn(C(=O)c2nnn(-c3ccc(-c4ccccc4)cc3)c2C2CC2)c2cccc(N)c12", "< 5.52"],
  ["O=C(Nc1ccncc1)c1nnn(-c2ccc(-c3cccc(CC(F)(F)F)c3)cc2)c1C1CC1", "6.30 to 7.00"],
  ["Cc1ccc(-c2ccc(-n3nnc(C(=O)Nc4ccncc4)c3C3CC3)cc2)cc1", "6.30 to 7.00"],
  ["Cc1cc(NC(=O)c2nnn(-c3ccc(-c4ccccc4)cc3OC(F)(F)F)c2C2CC2)ccn1", "6.30 to 7.00"],
  ["Cc1nn(C)c(C)c1-c1ccc(-n2nnc(C(=O)NC3CC3)c2C(C)C)cc1", "< 5.52"],
  ["N#Cc1cccc(-c2cccc(-n3nnc(C(=O)Nc4ccncc4)c3C3CC3)c2)c1", "5.52 to 6.00"],
  ["Cc1cc(NC(=O)c2nnn(-c3ccc(-c4c(C)nn(-c5ccccc5)c4C)cc3)c2C2CC2)ccn1", "> 7.00"],
  ["Cc1ccc(C2(NC(=O)c3nnn(-c4ccc(-c5ccc(C#N)c(F)c5)cc4)c3C3CC3)CC2)cn1", "6.30 to 7.00"],
  ["Cc1cc(NC(=O)c2nnn(-c3ccc(-c4c(C)nn(C)c4C)cc3F)c2C2CC2)ccn1", "> 7.00"],
  ["Cc1nn(C)c(C)c1-c1ccc(-n2nnc(C(=O)Nc3ccncc3)c2C2CC2)c(OC(F)(F)F)c1", "6.30 to 7.00"],
  ["Cn1cc(C2(NC(=O)c3nnn(C4CC=C(c5ccc(C#N)cc5)CC4)c3C3CC3)CC2)cn1 (stereo not shown)", "5.52 to 6.00"],
  ["COc1ccc(-c2ccc(-n3nnc(C(=O)Nc4ccncc4)c3C3CC3)cc2)cc1C", "6.30 to 7.00"],
  ["COc1cc(-n2nnc(C(=O)Nc3ccncc3)c2C2CC2)ccc1-c1c(C)nn(C)c1C", "6.00 to 6.30"]
]}
